- STUDY_TARGET: Ubiquitin carboxyl-terminal hydrolase 4 (Homo sapiens, UniProt Q13107)
- Sequence (Q13107 whole entry): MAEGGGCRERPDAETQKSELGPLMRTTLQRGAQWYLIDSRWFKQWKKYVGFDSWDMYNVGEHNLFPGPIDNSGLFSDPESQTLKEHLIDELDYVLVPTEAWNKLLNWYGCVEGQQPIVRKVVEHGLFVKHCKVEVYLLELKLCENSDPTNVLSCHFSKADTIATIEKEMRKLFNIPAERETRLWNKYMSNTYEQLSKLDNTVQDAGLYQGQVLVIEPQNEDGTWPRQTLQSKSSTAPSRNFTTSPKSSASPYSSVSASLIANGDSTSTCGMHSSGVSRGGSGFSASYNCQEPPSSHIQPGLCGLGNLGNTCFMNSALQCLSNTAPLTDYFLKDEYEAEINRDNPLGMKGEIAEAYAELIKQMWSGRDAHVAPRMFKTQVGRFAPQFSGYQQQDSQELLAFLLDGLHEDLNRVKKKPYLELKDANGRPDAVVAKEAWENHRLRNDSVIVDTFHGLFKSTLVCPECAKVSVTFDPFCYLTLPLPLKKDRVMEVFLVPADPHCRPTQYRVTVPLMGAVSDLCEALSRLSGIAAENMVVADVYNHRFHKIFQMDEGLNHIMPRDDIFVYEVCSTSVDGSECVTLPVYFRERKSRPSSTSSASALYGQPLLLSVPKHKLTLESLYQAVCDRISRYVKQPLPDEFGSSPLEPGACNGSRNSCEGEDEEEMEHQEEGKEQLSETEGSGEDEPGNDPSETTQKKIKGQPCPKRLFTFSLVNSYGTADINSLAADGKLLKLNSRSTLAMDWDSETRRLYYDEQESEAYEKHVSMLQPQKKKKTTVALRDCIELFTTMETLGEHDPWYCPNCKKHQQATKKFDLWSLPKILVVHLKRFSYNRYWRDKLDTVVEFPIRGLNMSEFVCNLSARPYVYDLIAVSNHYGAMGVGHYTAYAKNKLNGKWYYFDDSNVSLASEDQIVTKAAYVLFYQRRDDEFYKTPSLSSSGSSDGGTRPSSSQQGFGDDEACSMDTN
- ASSAY_OVERVIEW: Inhibition of USP4 in human U2OS using Ub-TAMRA substrate by Ub-Rhodamine fluorescent intensity assay
METRIC_NAME: IC50 (nM)
Numeric only. Scale: nM

Lookup: Give the reported IC50 for C#Cc1ccc(CNC(=O)c2cc(C(=O)CCl)cn2C)cc1 (system: Ubiquitin carboxyl-terminal hydrolase 4 (Homo sapiens, UniProt Q13107)).
Found: 50
